target: STING receptor (Homo sapiens, UniProt Q86WV6, G230A/H232R/R293Q/R71H)
Construct: host or cells: THP-1 Dual cells (human monocytic THP-1 with NF-kB-SEAP and IRF-Lucia reporters)
Sequence (Q86WV6 whole entry R71H/G230A/H232R/R293Q): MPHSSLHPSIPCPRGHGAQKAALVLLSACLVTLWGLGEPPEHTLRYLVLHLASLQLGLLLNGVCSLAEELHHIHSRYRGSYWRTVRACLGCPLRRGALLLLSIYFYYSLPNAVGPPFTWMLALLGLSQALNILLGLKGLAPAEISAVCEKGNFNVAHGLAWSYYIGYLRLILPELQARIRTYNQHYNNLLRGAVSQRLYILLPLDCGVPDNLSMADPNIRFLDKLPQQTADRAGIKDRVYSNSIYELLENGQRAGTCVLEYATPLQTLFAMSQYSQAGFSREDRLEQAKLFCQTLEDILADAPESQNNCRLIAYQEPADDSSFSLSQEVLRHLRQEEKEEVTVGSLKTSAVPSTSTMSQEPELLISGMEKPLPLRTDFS
protocol-text: THP-1 Dual assay, NF-κB pathway (SEAP reporter)
Assay type: cell-based
recorded-conditions: 5 mg/mL STING agonist; 18 h incubation
endpoint-label: Fold induction of NF-κB activation THP-1 Dual cells (fold)

Worked cases, answers included:
1) Nc1ncnc2c1ccn2[C@@H]1O[C@@H]2COP(=O)(S)O[C@@H]3[C@H](O)[C@@H](CO[P@@](=O)(S)O[C@@H]2[C@H]1O)O[C@H]3n1cnc2c(N)ncnc21 (single isomer, unassigned) [Example 1b] :: 1.29
2) Nc1nc2c(ncn2[C@@H]2O[C@@H]3COP(=O)(O)O[C@H]4[C@@H](O)[C@H](n5cnc6c(=O)[nH]c(N)nc65)O[C@@H]4COP(=O)(O)O[C@H]3[C@H]2O)c(=O)[nH]1 [3′,5′-c-di-GMP, reference compound] :: 1.02

1. Nc1ncnc2c1ccn2[C@@H]1O[C@@H]2CO[P@@](=O)(S)O[C@@H]3[C@@H](O)[C@H](n4cnc5c(N)ncnc54)O[C@@H]3COP(=O)(S)O[C@@H]1[C@@H]2O (stereo partly shown)
2. Nc1ncnc2c1ccn2[C@@H]1O[C@@H]2COP(=O)(S)O[C@@H]3[C@H](O)[C@@H](CO[P@@](=O)(S)O[C@@H]2[C@H]1O)O[C@H]3n1cnc2c(N)ncnc21 (single isomer, unassigned) [Example 1a]
stdin: Min Fold induction of NF-κB activation THP-1 Dual cells? 1 | 2 Output the label that corresponds to your choice.
stdout: 1
(1: 1.08 fold, 2: 2.77 fold)
